Value source: patent US20240150293A1

# pKi values compiled below
target-system: Cy5-labelled Mcl1 (amino acids 171-321) C286S protein (UniProtKB Q07820) (Homo sapiens (Human), UniProt Q07820, C286S)
Sequence (Q07820 171-321 C286S): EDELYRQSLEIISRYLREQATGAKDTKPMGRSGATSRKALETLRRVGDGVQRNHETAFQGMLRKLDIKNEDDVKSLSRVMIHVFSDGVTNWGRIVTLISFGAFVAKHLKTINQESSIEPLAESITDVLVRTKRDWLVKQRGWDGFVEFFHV
assay-remarks: Inhibition of Mcl-1 by the fluorescence quenching assay (Example A, Method B)
Type: binding
Answer as the number alone; pKi is minus log10 of concentration in mol/L.

These solved cases illustrate the format of a correct answer.
compound	pKi
C[C@@H](COc1ccnc2c1C1CCC2CC1)C[C@H]1Cc2ccccc2[C@]12CC[C@@](Nc1cccc(Cl)c1)(C(=O)O)CC2	7.74
C[C@@H](COc1ccnc2c1[C@H](C)CCC2)C[C@H]1Cc2ccccc2[C@]12CC[C@@](Nc1cccc(Cl)c1F)(C(=O)O)CC2	9.05
C[C@@H](COc1ccnc2c1[C@H](C)CCC2)C[C@H]1Cc2ccc(OCC3CC3)cc2[C@]12CC[C@@](Nc1cccc(Cl)c1)(C(=O)O)CC2	9.91
C[C@@H](COc1ccnc2c1[C@H](C)CCC2)C[C@H]1Cc2cc3c(cc2[C@]12CC[C@@](Nc1ccc(Cl)c(Cl)c1)(C(=O)O)CC2)OCO3	9.53
CC(=O)c1cc(C)c2c(c1)[C@]1(CC[C@@](Nc3cccc(Cl)c3)(C(=O)O)CC1)C(C[C@@H](C)COc1ccnc3c1[C@H](C)CCC3)C2 (single isomer, unassigned) [Example 758]	8.92

Next:
Please fill in: pKi reported for C[C@@H](COc1ccnc2c1[C@H](C)CCC2)CC1=Cc2c(Cl)cccc2[C@]12CC[C@@](Nc1cccc(Cl)c1)(C(=O)O)CC2 = 8.82
